The compounds listed here are annotated with their TGI.
- Tested on: SF-268 CNS
- experimentalProtocol: NCI tumour cell line growth inhibition, 48 h

[
  {
    "compound": "N#CC(Sc1ccccc1)C(N)=O (stereo unspecified)",
    "experimentalSystem": "SF-268 CNS",
    "TGI": "> 100 µM"
  },
  {
    "compound": "OCc1ccc(-c2nc(-c3ccc4c(c3)OCO4)c(-c3ccccn3)[nH]2)cc1",
    "experimentalSystem": "SF-268 CNS",
    "TGI": "> 25 µM"
  },
  {
    "compound": "O=C(CCN1CCCCC1)Nc1ccc2c(c1)C(=O)c1ccc(NC(=O)CCN3CCCCC3)cc1C2=O",
    "experimentalSystem": "SF-268 CNS",
    "TGI": "24.2 µM"
  },
  {
    "compound": "CC(C)CNC1=NCC(C)S1 (stereo unspecified)",
    "experimentalSystem": "SF-268 CNS",
    "TGI": "> 100 µM"
  },
  {
    "compound": "O=C1NC(=O)C(CCC(=O)c2cccc3ccccc23)C(=O)N1",
    "experimentalSystem": "SF-268 CNS",
    "TGI": "> 100 µM"
  },
  {
    "compound": "COc1ccc(C)c2sc(N(Cc3cccnc3)C(=O)c3ccc(C#N)cc3)nc12",
    "experimentalSystem": "SF-268 CNS",
    "TGI": "> 100 µM"
  }
]

###

- Tested on: SNB-75 CNS
- experimentalProtocol: NCI tumour cell line growth inhibition, 48 h
observationType: TGI (µM)

[
  {
    "compound": "Cn1cnc([N+](=O)[O-])c1Sc1n[nH]c(-c2ccc(Cl)cc2)n1",
    "unitName": "µM",
    "censorSymbol": "=",
    "recordedMeasurement": 50.7
  },
  {
    "compound": "CC1OC(n2cc(F)c(=O)[nH]c2=O)CCC1=O (stereo not given)",
    "unitName": "µM",
    "censorSymbol": ">",
    "recordedMeasurement": 100
  },
  {
    "compound": "C=CC12CCCCC1CC(C(=O)OC)=C(O)C2 (stereo not given)",
    "unitName": "µM",
    "censorSymbol": ">",
    "recordedMeasurement": 100
  },
  {
    "compound": "O=CN/C=C/c1ccccc1",
    "unitName": "µM",
    "censorSymbol": ">",
    "recordedMeasurement": 100
  },
  {
    "compound": "COc1ccccc1C#C/C=C\\C#Cc1ccccc1C#N",
    "unitName": "µM",
    "censorSymbol": ">",
    "recordedMeasurement": 100
  },
  {
    "compound": "COc1cc(OC)c(C(=O)/C=C/c2ccc(C#N)cc2)c(OC)c1",
    "unitName": "µM",
    "censorSymbol": "=",
    "recordedMeasurement": 6.62
  },
  {
    "compound": "Cc1c(-c2ccccc2)c(C#N)c2nnn(-c3ccc(Cl)cc3)c(=O)n12",
    "unitName": "µM",
    "censorSymbol": ">",
    "recordedMeasurement": 100
  },
  {
    "compound": "CC[C@]12CN3CCc4c([nH]c5ccccc45)[C@@](C(=O)OC)(c4cc5c(cc4OC)N(C)[C@H]4[C@@](O)(C(=O)OC)[C@H](OC(C)=O)[C@]6(CC)C=CCN7CC[C@]54[C@@H]76)CC(C3)[C@H]1O2 (stereo not given in full)",
    "unitName": "µM",
    "censorSymbol": ">",
    "recordedMeasurement": 100
  },
  {
    "compound": "Cc1ccc(S(=O)(=O)N(CCN)c2cc3c4c(c2)Oc2cccc5c2C4c2c(cccc2O3)O5)cc1",
    "unitName": "µM",
    "censorSymbol": "=",
    "recordedMeasurement": 25.1
  },
  {
    "compound": "CCOC(=O)c1c(CN2CCNCC2)nc2ccc(Cl)cc2c1-c1ccccc1",
    "unitName": "µM",
    "censorSymbol": "=",
    "recordedMeasurement": 9.5
  }
]

###

- Test system: HOP-62 NSCLC
- experimentalProtocol: NCI tumour cell line growth inhibition, 48 h
observationType: GI50

[
  {
    "compound": "O=C1OC2(c3ccc(O)cc3Oc3cc(O)ccc32)c2cccc3cccc1c23",
    "recordedMeasurement": "17 µM"
  },
  {
    "compound": "Nc1nc(Sc2ccc([N+](=O)[O-])c3nonc23)c2ncn(C3OC(CO)C(O)C3O)c2n1 (stereo not given)",
    "recordedMeasurement": "0.531 µM"
  },
  {
    "compound": "CCCCCSc1ccc2nc(NC(=O)OCC)sc2c1",
    "recordedMeasurement": "0.491 µM"
  },
  {
    "compound": "CCOC(=O)c1ccc(N2NC(=O)/C(=C/c3ccc([N+](=O)[O-])o3)C2=O)cc1",
    "recordedMeasurement": "29.9 µM"
  },
  {
    "compound": "N#Cc1c(N)nc2c(c1-c1ccc(Cl)cc1)COc1ccc(F)cc1-2",
    "recordedMeasurement": "25.1 µM"
  },
  {
    "compound": "CCn1nc(C2CCN(C(=O)CCO)CC2)nc1-c1cnc(N)c(-c2nnc(C(C)(C)C)o2)n1",
    "recordedMeasurement": "5.01 µM"
  },
  {
    "compound": "COc1ccc(Sc2[nH]c(C=O)c3ccccc23)cc1",
    "recordedMeasurement": "15.5 µM"
  },
  {
    "compound": "Cc1cccc2c(=O)c3c(sc12)c(NCCCNCCO)nc1ccccc13",
    "recordedMeasurement": "1.22 µM"
  },
  {
    "compound": "COc1ccc(C(=O)/C=C/c2cc(-c3ccc(OC)c(OC)c3)n[nH]2)cc1OC",
    "recordedMeasurement": "1.73 µM"
  },
  {
    "compound": "OCc1ccc(-c2nc(-c3ccc4c(c3)OCO4)c(-c3ccccn3)[nH]2)cc1",
    "recordedMeasurement": "> 25 µM"
  }
]

###

- Tested on: KM12 colon
- experimentalProtocol: NCI tumour cell line growth inhibition, 48 h
fulfilled means recorded TGI is 30 µM or above; not fulfilled means it is below 30 µM.

[
  {
    "molecule": "CC(C)[C@@]12C[C@@H](OC(=O)C3CO3)[C@@](C)(O1)[C@@H]1CC[C@@H](C)[C@H]1[C@@H]2OC(=O)/C=C/c1ccccc1 (some centres not stated)",
    "experimentalSystem": "KM12 colon",
    "cat": "fulfilled"
  },
  {
    "molecule": "Nc1nc(-c2cccnc2)cc(-c2cc(-c3cccnc3)nc(N)n2)n1",
    "experimentalSystem": "KM12 colon",
    "cat": "fulfilled"
  },
  {
    "molecule": "O=S(Cc1ccccc1)c1ccccc1Cn1cccc1 (configuration not stated)",
    "experimentalSystem": "KM12 colon",
    "cat": "fulfilled"
  },
  {
    "molecule": "Cc1[nH]c2ncn3[nH]c(=S)nc3c2c1Cc1ccccc1",
    "experimentalSystem": "KM12 colon",
    "cat": "fulfilled"
  },
  {
    "molecule": "NC(=O)c1cn(C2CC(O)C(CO)O2)c2ncnc(N)c12 (configuration not stated)",
    "experimentalSystem": "KM12 colon",
    "cat": "not fulfilled"
  },
  {
    "molecule": "CCc1cc2c(c(OCC(F)(F)F)c(C(=O)NC3CCN(C(=O)CO)CC3)n2C)c(=O)n1CC(=O)c1ccccc1",
    "experimentalSystem": "KM12 colon",
    "cat": "fulfilled"
  },
  {
    "molecule": "CN1CCc2ccccc2C1Cc1ccccc1NC(=O)c1sc2ccccc2c1Cl (configuration not stated)",
    "experimentalSystem": "KM12 colon",
    "cat": "fulfilled"
  },
  {
    "molecule": "CCOc1ccc(-c2nc3ccc(-c4nc5ccc(N6CCN(C)CC6)cc5[nH]4)cc3[nH]2)cc1",
    "experimentalSystem": "KM12 colon",
    "cat": "not fulfilled"
  },
  {
    "molecule": "CC1OC(n2cc(F)c(=O)[nH]c2=O)CCC1=O (configuration not stated)",
    "experimentalSystem": "KM12 colon",
    "cat": "fulfilled"
  },
  {
    "molecule": "C/C(=N\\O)c1ccc(OCc2cc(C(F)(F)F)cc(C(F)(F)F)c2)cc1",
    "experimentalSystem": "KM12 colon",
    "cat": "fulfilled"
  },
  {
    "molecule": "CCOC(=O)c1c(NN2CCN(CC(F)(F)F)CC2)oc(/C=C2\\C=Nc3ncccc32)c1O",
    "experimentalSystem": "KM12 colon",
    "cat": "not fulfilled"
  },
  {
    "molecule": "CCOC(=O)c1c(CN2CCNCC2)nc2ccc(Cl)cc2c1-c1ccccc1",
    "experimentalSystem": "KM12 colon",
    "cat": "not fulfilled"
  },
  {
    "molecule": "CC(=O)Nc1ccc(S(=O)(=O)c2nnc(NC(C)=O)s2)cc1",
    "experimentalSystem": "KM12 colon",
    "cat": "fulfilled"
  },
  {
    "molecule": "O=S(=O)(CC(Cl)c1ccccc1)c1nc2ccccc2s1 (configuration not stated)",
    "experimentalSystem": "KM12 colon",
    "cat": "fulfilled"
  },
  {
    "molecule": "CC(NNC(=O)c1ccncc1)c1ccccc1 (configuration not stated)",
    "experimentalSystem": "KM12 colon",
    "cat": "fulfilled"
  },
  {
    "molecule": "Nc1ccc(Oc2ccc(C34CC5CC(C3)CC(c3ccc(Oc6ccc(N)cc6C(F)(F)F)cc3)(C5)C4)cc2)c(C(F)(F)F)c1",
    "experimentalSystem": "KM12 colon",
    "cat": "fulfilled"
  },
  {
    "molecule": "C=C(C)CC(C(=O)O)c1ccc(C)cc1 (configuration not stated)",
    "experimentalSystem": "KM12 colon",
    "cat": "fulfilled"
  },
  {
    "molecule": "COc1cc(OC)c(C(=O)/C=C/c2ccc(C#N)cc2)c(OC)c1",
    "experimentalSystem": "KM12 colon",
    "cat": "not fulfilled"
  },
  {
    "molecule": "CCOC(=O)c1c(NC(=S)Nc2ccccc2)sc2c1CCN(C)C2",
    "experimentalSystem": "KM12 colon",
    "cat": "fulfilled"
  },
  {
    "molecule": "COc1ccc(Sc2[nH]c(C=O)c3ccccc23)cc1",
    "experimentalSystem": "KM12 colon",
    "cat": "not fulfilled"
  },
  {
    "molecule": "COc1cc(/C=N/NC(=O)c2c(Cl)c(Cl)c(Cl)c(Cl)c2-c2nc3ccc(C(=O)c4ccccc4)cc3[nH]2)ccc1O",
    "experimentalSystem": "KM12 colon",
    "cat": "fulfilled"
  },
  {
    "molecule": "c1cc(OCCN2CCCC2)ccc1CNc1ccc2nc(CCC3CCCCC3)[nH]c2c1",
    "experimentalSystem": "KM12 colon",
    "cat": "not fulfilled"
  },
  {
    "molecule": "CSc1nc(-c2ccccc2)[nH]c(=O)n1",
    "experimentalSystem": "KM12 colon",
    "cat": "fulfilled"
  },
  {
    "molecule": "CN(CCNC(=O)c1cn(C)c2c1ccc1ccccc12)CCNC(=O)c1cn(C)c2c1ccc1ccccc12",
    "experimentalSystem": "KM12 colon",
    "cat": "not fulfilled"
  },
  {
    "molecule": "O=C(COc1ccccc1)NNc1ccccc1",
    "experimentalSystem": "KM12 colon",
    "cat": "fulfilled"
  },
  {
    "molecule": "NC(=O)c1ncn(C2C=CC(CP(=O)(O)O)C2)c1N (configuration not stated)",
    "experimentalSystem": "KM12 colon",
    "cat": "fulfilled"
  },
  {
    "molecule": "COc1ccc2cc3c4cc(OC)c(OC)cc4ccn3c2c1",
    "experimentalSystem": "KM12 colon",
    "cat": "fulfilled"
  },
  {
    "molecule": "COc1cccc(S(=O)(=O)NC2=NCCN2C(=S)SN2CCn3c2nsc3=S)c1",
    "experimentalSystem": "KM12 colon",
    "cat": "fulfilled"
  },
  {
    "molecule": "FC(F)(F)c1ccc2c(-c3cc[nH]c3)ccnc2c1",
    "experimentalSystem": "KM12 colon",
    "cat": "fulfilled"
  },
  {
    "molecule": "CCCCN(CCCC)P(=O)(Oc1ccccc1)Oc1ccccc1",
    "experimentalSystem": "KM12 colon",
    "cat": "not fulfilled"
  },
  {
    "molecule": "O=C1c2ccccc2CC12Cc1cc3c(cc1C2)CCC3",
    "experimentalSystem": "KM12 colon",
    "cat": "fulfilled"
  },
  {
    "molecule": "O=C1OC(c2ccc(O)cc2)(c2ccc(O)cc2)c2ccc(Cl)c3cccc1c23 (tested in a mixture with another compound)",
    "experimentalSystem": "KM12 colon",
    "cat": "not fulfilled"
  },
  {
    "molecule": "Brc1ccc(-c2[nH]c3ccccc3c2/C=N\\Nc2ccc(-c3nc4ccccc4[nH]3)cc2)cc1",
    "experimentalSystem": "KM12 colon",
    "cat": "fulfilled"
  },
  {
    "molecule": "CCCCCCCCCCC/C=C(/C(=O)CCCO[Si](C)(C)C(C)(C)C)C(=O)OC",
    "experimentalSystem": "KM12 colon",
    "cat": "fulfilled"
  },
  {
    "molecule": "COc1cc(-n2cc(-c3ccc(Cl)cc3)n(-c3ccccc3)c2=O)cc(OC)c1OC",
    "experimentalSystem": "KM12 colon",
    "cat": "fulfilled"
  },
  {
    "molecule": "N#Cc1c(-c2ccc([N+](=O)[O-])cc2)c2c([nH]c1=O)-c1ccccc1CCC2",
    "experimentalSystem": "KM12 colon",
    "cat": "fulfilled"
  },
  {
    "molecule": "Cc1cccc2c(=O)c3c(sc12)c(NCCCNCCO)nc1ccccc13",
    "experimentalSystem": "KM12 colon",
    "cat": "not fulfilled"
  },
  {
    "molecule": "O=C1/C(=C/c2ccccc2Cl)COc2ccc(Br)cc21",
    "experimentalSystem": "KM12 colon",
    "cat": "fulfilled"
  },
  {
    "molecule": "O=C(NCCCCCCCCNC(=O)Nc1cccc2ccccc12)Nc1cccc2ccccc12",
    "experimentalSystem": "KM12 colon",
    "cat": "fulfilled"
  },
  {
    "molecule": "Cc1cc(-c2nc3sc(C)cn3c2/C=N/N=C(N)N)c(C)s1",
    "experimentalSystem": "KM12 colon",
    "cat": "not fulfilled"
  }
]
